# target-desc: Platelet-activating factor acetylhydrolase IB subunit alpha2 (Homo sapiens)
# experiment: inhibition of human PAFAH1B2 catalytic subunit – biochemical, fluorescence polarization, FP-rhodamine probe, triplicate, confirmation (AID 493034);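 also: inhibitors lower polarization by leaving the probe unbound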
# test-settings: recombinant PAFAH1B2, FP-rhodamine probe fluorescence polarization; at 3.39 µM
In all, about 2,400 compounds went through this assay and about 2,200 (92%) were called active.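 The calls were made as follows: active = mean inhibition over triplicate runs exceeds the cutoff derived for the earlier primary screen (cut at about 25% in these data); inactive = the rest.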 The set was probably picked from earlier hits. This is one part of the list.
Bench note: report the call from active, inactive

Hi team, can someone confirm the assay call for COC(=O)c1c(NC(=O)C2C3CCC(O3)C2C(=O)O)sc2c1CCCCCC2 (stereo not given) ?
active

Hi team, can someone confirm the assay call for O=C1OC(c2ccccc2)=N/C1=C/c1cccc(OC(=O)c2cccs2)c1 ?
inactive

Hi team, can someone confirm the assay call for CC12CC3CC(C)(C1)CC(C(=O)N1CCN(C(=O)c4ccco4)CC1)(C3)C2 ?
inactive

Hi team, can someone confirm the assay call for NC(=O)CSc1ccc(Br)cc1 ?
active

Hi team, can someone confirm the assay call for O=C(NCc1ccc(Cl)cc1)C(=O)NCC1OCCN1S(=O)(=O)c1cc(F)ccc1F (stereo not given) ?
inactive

Hi team, can someone confirm the assay call for OC(c1ccc(F)cc1)(C1CCCCC1)C(CN1CCOCC1)c1ccccc1 (stereo not given) ?
inactive

Hi team, can someone confirm the assay call for Cc1c(N=C2C=C(Br)C(=O)C(Br)=C2)c(=O)n(-c2ccccc2)n1C ?
inactive

Hi team, can someone confirm the assay call for CCc1ccc(S(=O)(=O)NCCc2csc(-c3ccccc3)n2)s1 ?
inactive

Hi team, can someone confirm the assay call for CC1(C)C(=O)N(c2ccccc2)C1c1ccccc1O (stereo not given) ?
active

Hi team, can someone confirm the assay call for Cc1ccc(S(=O)(=O)Nc2ccccc2-c2ccccc2NS(=O)(=O)c2ccc(C)cc2)cc1 ?
active
